Tested on: Intestinal organoid from Göttingen minipig jejunum tissue, 2D monolayer
assay.explanation: Cell based in vitro permeability (Papp) assay
Format: in vitro ADME
Starred links: 1 amine or outer side, 2 acyl side, 3 side chain; linkers in the order of their positions; H or OH if unused. Non-standard residues stand in square brackets, D forms with d. Groups on a side chain read outwards from the residue. No end group written: not given here. *: point of attachment. C18 diacid = O=C(O)CCCCCCCCCCCCCCCCC(=O)*; αMePhe(2-F) = C[C@](N)(Cc1ccccc1F)C(=O)O; γGlu = O=C(O)[C@H](CCC(=O)[*:2])N[*:1]; αMe4Pal = C[C@](N)(Cc1ccncc1)C(=O)O; αMeY = C[C@](N)(Cc1ccc(O)cc1)C(=O)O; 4Pal = N[C@@H](Cc1ccncc1)C(=O)O; αMeL = CC(C)C[C@](C)(N)C(=O)O; αMeS = C[C@](N)(CO)C(=O)O; Orn = NCCC[C@H](N)C(=O)O; AEEA = NCCOCCOCC(=O)O; Aib = CC(C)(N)C(=O)O
Binary call on Relative Papp (Compared to internal standard): criterion met from 0.3 upward, criterion not met beneath that.

Determine whether this substance has Relative Papp (Compared to internal standard) no lower than 0.3: H-Y[Aib]QGTFTSD[4Pal]S[Orn][αMeL]LDKK([AEEA-γGlu-C18 diacid])AQ[Aib]AFIEYLLAGGPSSGEPPPSGS-NH2 [Example 154]
criterion not met

API: above_or_equal(metric=Relative Papp (Compared to internal standard), cutoff=0.3) for item H-Y[Aib]QGTFTSD[4Pal]S[Orn][αMeL]LDKK([AEEA-γGlu-C18 diacid])AQ[αMe4Pal]AFIEYLIE[Aib]GESSGAPPPSGS-NH2 [Example 223]
criterion not met

Would you say Y[Aib]QGTFTSDFS[Orn][αMeL]LDKK([AEEA-γGlu-C18 diacid])AQ[Aib]AFIEYLLEGGPSSGAPPPGGS-NH2 [Example 62] shows Relative Papp (Compared to internal standard) at minimum 0.3?
criterion not met

Decide: is the reported value of Relative Papp (Compared to internal standard) for H-Y[Aib]QGT[αMePhe(2-F)]TSD[4Pal][αMeS]I[αMeL]LD[Orn]K([AEEA-γGlu-C18 diacid])AQ[αMe4Pal]EFI[dE][αMeY]LIEGGPSSGAPPPSGSE-NH2 [Example 712] equal to or greater than 0.3?
criterion met

State whether the measured Relative Papp (Compared to internal standard) reaches 0.3, counting equality as reaching it, for H-Y[Aib]QGTFTSDFS[Orn][αMeL]LDKK([AEEA-γGlu-C18 diacid])AQ[Aib]AFIEYLLE[dA]GPSS[Aib]APPPSGT-NH2 [Example 214]
criterion not met

API: above_or_equal(metric=Relative Papp (Compared to internal standard), cutoff=0.3) for item Y[Aib]QGTFTSDFS[Orn][αMeL]LDKK([AEEA-AEEA-γGlu-C18 diacid])AQ[Aib]AFIEYLLE[dA]GPSSGHPPPSGH-NH2 [Example 255]
criterion not met

Is the recorded value of Relative Papp (Compared to internal standard) equal to or greater than 0.3 for this substance? H-Y[Aib]QGTFTSD[4Pal]SQ[αMeL]LDKK([AEEA-γGlu-C18 diacid])AQ[αMe4Pal]AFIEYLIE[Aib]GESSGAPPPSGE-NH2 [Example 227]
criterion met

Answer whether Relative Papp (Compared to internal standard) of H-Y[Aib]QGTFTSD[4Pal]SR[αMeL]LDKK([AEEA-γGlu-C18 diacid])AQ[Aib]AFIEYLIE[Aib]GESSGAPPPSGS-NH2 [Example 187] is greater than or equal to 0.3.
criterion met

Is Relative Papp (Compared to internal standard) at least 0.3? Consider H-Y[Aib]QGT[αMePhe(2-F)]TSD[4Pal][αMeS]I[αMeL]LD[Orn]K([γGlu-γGlu-C18 diacid])AQ[αMe4Pal]EFI[dE][αMeY]LIEGGPSSGAPPPEGGGE-NH2 [Example 761]
criterion met

Please check the record H-Y[Aib]QGTFTSDFS[Orn][αMeL]LDKK([AEEA-AEEA-γGlu-C18 diacid])AQ[Aib]AFIEYLLE[Aib]GHSSGAPPPSGE-NH2 [Example 186] and state if its Relative Papp (Compared to internal standard) is at or above 0.3.
criterion not met

Threshold query (Relative Papp (Compared to internal standard) >= 0.3) on H-Y[Aib]QGTFTSDFS[Orn][αMeL]LDKK([AEEA-γGlu-C18 diacid])AQ[Aib]AFIEYLLE[dA]GPSSGAPPPSGS-NH2 [Example 209]
criterion not met

Does the substance H-Y[Aib]QGTFTSDFS[Orn][αMeL]LDKK([AEEA-γGlu-C18 diacid])AQ[Aib]AFIEYLLE[Aib]G[4Pal]SSGAPPPSGS-NH2 [Example 242] have recorded Relative Papp (Compared to internal standard) that is 0.3 or more?
criterion not met

hey, is Relative Papp (Compared to internal standard) for this one >= 0.3? H-Y[Aib]QGTFTSDFS[Orn][αMeL]LDKK([AEEA-AEEA-γGlu-C18 diacid])AQ[Aib]AFIEYLLE[Aib]G[4Pal]SSGAPPPSGE-NH2 [Example 189]
criterion not met
